Measured MIC, listed per entry.
Test system: E. cloacae Nek 39
Protocol Description: agar plate dilution method, MIC against E. cloacae Nek 39
Type: cell-based
Experimental Parameters: Enterobacter cloacae, NEK39; E. cloacae Nek 39 (lactamase-producing strain); 10^6 CFU/ml, 37° C., 16 hours; read-out: Minimum Inhibitory Concentration (MIC)
Measured Endpoint: MIC (µg/mL)

Compound	Measured Endpoint	Recorded Measurement
CC(=O)Oc1ccc(C(O/N=C(\C(=O)NC2C(=O)N3C(C(=O)[O-])=C(CSc4cc[n+](CC(=O)O)cc4)CSC23)c2csc(N)n2)C(=O)O)cc1OC(C)=O (stereo not drawn) [Example 6]	MIC	0.78
CCON=C(C(=O)NC1C(=O)N2C(C(=O)[O-])=C(CSc3cc[n+](CC(=O)O)cc3)CSC12)c1csc(N)n1 (stereo not drawn) [Reference Example A, reference compound]	MIC	1.56
Nc1nc(/C(=N/OCc2ccccc2)C(=O)NC2C(=O)N3C(C(=O)[O-])=C(CSc4cc[n+](CC(=O)O)cc4)CSC23)cs1 (stereo not drawn) [Example 2]	MIC	6.25
Nc1nc(C(=NOCc2ccc(O)c(O)c2)C(=O)NC2C(=O)N3C(C(=O)[O-])=C(CSc4cc[n+](CC(=O)O)cc4)CSC23)cs1 (stereo not drawn) [Example 4]	MIC	0.78
Nc1nc(/C(=N/Oc2ccccc2)C(=O)NC2C(=O)N3C(C(=O)[O-])=C(CSc4cc[n+](CC(=O)O)cc4)CSC23)cs1 (stereo not drawn) [Example 7]	MIC	12.5
Nc1nc(C(=NOC(C(=O)O)c2ccc(O)c(O)c2)C(=O)NC2C(=O)N3C(C(=O)[O-])=C(CSc4cc[n+](CC(=O)O)cc4)CSC23)cs1 (stereo not drawn) [Example 5]	MIC	0.2
Nc1nc(/C(=N/OC(C(=O)O)c2ccccc2)C(=O)NC2C(=O)N3C(C(=O)[O-])=C(CSc4cc[n+](CC(=O)O)cc4)CSC23)cs1 (stereo not drawn) [Example 3]	MIC	6.25
CO/N=C(\C(=O)N[C@@H]1C(=O)N2C(C(=O)O)=C(COC(C)=O)CS[C@H]12)c1csc(N)n1 [Cefotaxime, cefotaxime, reference compound]	MIC	3.12
C=C(O/N=C(\C(=O)NC1C(=O)N2C(C(=O)[O-])=C(CSc3cc[n+](CC(=O)O)cc3)CSC12)c1csc(N)n1)C(=O)O (stereo not drawn) [Example 1]	MIC	0.78
